Data credit: paper PMC4336329

Biological target: human ether-à-go-go-related gene (hERG) potassium channel (human);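 also: peak tail current of the secondary pulse compared with the same well before compound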
Sequence (Q12809 whole entry, looked up): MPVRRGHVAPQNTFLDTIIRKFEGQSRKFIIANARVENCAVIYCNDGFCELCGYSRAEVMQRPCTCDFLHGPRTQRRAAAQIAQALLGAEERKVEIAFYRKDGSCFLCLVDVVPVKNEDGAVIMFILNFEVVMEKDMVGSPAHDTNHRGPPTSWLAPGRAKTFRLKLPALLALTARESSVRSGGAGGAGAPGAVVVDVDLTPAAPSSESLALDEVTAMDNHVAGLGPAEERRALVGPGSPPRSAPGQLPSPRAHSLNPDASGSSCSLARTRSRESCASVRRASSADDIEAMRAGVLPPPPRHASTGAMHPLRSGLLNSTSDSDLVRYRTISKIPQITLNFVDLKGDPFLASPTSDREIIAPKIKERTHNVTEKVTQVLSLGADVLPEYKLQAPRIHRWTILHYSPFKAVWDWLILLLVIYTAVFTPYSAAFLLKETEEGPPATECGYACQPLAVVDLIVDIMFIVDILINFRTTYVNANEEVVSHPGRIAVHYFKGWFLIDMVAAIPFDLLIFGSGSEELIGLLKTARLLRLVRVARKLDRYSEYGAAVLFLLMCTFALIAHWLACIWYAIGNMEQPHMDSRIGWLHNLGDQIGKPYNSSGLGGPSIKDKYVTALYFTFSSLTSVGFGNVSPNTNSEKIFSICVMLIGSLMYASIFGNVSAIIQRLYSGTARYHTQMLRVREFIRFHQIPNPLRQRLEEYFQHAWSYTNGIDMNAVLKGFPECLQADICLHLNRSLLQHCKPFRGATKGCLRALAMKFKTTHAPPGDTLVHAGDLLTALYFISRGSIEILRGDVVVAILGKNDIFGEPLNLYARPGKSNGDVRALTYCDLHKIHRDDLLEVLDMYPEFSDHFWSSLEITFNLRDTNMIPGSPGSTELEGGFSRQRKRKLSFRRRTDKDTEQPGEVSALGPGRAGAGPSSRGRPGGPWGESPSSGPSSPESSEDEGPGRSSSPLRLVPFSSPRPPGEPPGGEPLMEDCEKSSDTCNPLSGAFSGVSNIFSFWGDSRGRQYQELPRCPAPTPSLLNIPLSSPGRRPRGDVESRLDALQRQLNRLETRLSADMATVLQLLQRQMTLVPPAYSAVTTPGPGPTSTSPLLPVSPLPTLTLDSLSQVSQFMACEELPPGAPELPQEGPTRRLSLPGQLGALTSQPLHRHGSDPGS
Test: primary screen, population patch clamp on CHO cells stably expressing hERG; higher = less effect of the substance
Out of some 310,000 compounds screened, about 14,000 (4.5%) showed an effect of 50% or more. The effect is printed as a negative number. For the sample, strong results were picked, then their nearest neighbours and some compounds at random.
Rule: hERG current change (%, negative = inhibition) at 10uM under -10% gives F, otherwise T.

{"columns": ["compound.structure.string", "group.label"],
 "data": [
  ["Cc1cc(NC(=O)CSc2ncnc3c2cnn3-c2ccccc2)no1", "F"],
  ["Cc1c(NC(=O)COC(=O)/C=C/c2cccc(Br)c2)c(=O)n(-c2ccccc2)n1C", "F"],
  ["Cc1c(NC(=O)CN(c2ccc(F)cc2)S(=O)(=O)c2ccccc2)c(=O)n(-c2ccccc2)n1C", "T"],
  ["Cc1c(NC(=O)COc2ccccc2Cl)c(=O)n(-c2ccccc2)n1C", "T"]
]}

Prompt: State whether the measured hERG current change (%, negative = inhibition) at 10uM reaches -10%, counting equality as reaching it, for Cc1c(NC(=O)COc2cccc(Cl)c2Cl)c(=O)n(-c2ccccc2)n1C
Response: F
